- Assay Target: Epidermal growth factor receptor (Homo sapiens, UniProt P00533, D770-N771INSSVD)
- Sequence (P00533 whole entry, looked up, stated change not applied): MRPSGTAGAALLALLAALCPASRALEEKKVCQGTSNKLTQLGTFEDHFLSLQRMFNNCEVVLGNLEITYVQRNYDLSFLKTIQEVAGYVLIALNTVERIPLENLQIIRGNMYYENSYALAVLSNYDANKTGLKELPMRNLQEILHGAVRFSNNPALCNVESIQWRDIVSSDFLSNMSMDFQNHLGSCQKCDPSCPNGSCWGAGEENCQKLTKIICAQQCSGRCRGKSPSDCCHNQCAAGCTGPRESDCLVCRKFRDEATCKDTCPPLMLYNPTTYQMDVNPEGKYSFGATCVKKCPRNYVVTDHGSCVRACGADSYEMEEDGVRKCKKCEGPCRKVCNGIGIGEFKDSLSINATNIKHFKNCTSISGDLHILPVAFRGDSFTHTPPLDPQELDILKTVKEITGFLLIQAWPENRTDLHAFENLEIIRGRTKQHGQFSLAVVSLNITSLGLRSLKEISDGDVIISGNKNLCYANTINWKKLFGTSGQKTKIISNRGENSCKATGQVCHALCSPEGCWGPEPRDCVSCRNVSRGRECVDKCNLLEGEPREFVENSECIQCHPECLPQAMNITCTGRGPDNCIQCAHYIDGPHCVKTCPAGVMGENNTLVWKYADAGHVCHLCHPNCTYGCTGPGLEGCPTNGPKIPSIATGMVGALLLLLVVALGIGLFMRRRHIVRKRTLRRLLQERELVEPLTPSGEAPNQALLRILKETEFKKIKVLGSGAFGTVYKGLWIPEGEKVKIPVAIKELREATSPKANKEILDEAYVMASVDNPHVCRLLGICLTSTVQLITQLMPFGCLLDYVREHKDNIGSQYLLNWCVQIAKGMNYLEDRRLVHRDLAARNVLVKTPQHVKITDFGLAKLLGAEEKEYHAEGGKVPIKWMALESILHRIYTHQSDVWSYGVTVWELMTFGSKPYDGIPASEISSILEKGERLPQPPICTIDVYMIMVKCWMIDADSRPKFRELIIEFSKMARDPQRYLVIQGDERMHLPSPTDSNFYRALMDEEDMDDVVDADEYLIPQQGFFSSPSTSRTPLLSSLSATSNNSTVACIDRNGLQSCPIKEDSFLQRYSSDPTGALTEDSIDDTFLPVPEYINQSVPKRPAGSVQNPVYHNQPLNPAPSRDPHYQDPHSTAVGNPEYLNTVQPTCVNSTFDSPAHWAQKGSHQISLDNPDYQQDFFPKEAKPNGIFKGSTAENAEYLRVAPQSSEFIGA
- Procedure Text: Inhibition of EGFR D770_N771insSVD mutant (unknown origin) phosphorylation transfected in human NCI-H2073 cells incubated for 2 hrs by HTRF assay
- Assay type: cell-based
pIC50: −log10 of the molar value.
Catalogue of pIC50 readings, one per entry.

| Entry Smiles | pIC50 |
| --- | --- |
| C=CC(=O)N[C@H]1C=C(C)c2c(-c3cnc4ccccc4c3)c3c(N)ncnc3n2C1 | 7.68 |
| C=CC(=O)N1CC[C@H](n2cc(-c3ccncc3)c(-c3cccc(/C=C/c4ccc5c(c4)CN(C)C5=O)c3)n2)C1 | 6.66 |
| C=CC(=O)Nc1cc(Nc2ncc(C(=O)OC(C)C)c(-c3cn(C)c4ccccc34)n2)c(OC)cc1N(C)CCN(C)C | 7.47 |
| C=CC(=O)N1CC[C@H](n2cc(-c3ccncc3)c(-c3cc(F)cc(OCc4ccc5c(c4)CN(C)C5=O)c3)n2)C1 | 6.27 |

====

Catalogue of IC50 readings, one per entry.
- Assay Target: Epidermal growth factor receptor (Homo sapiens, UniProt P00533, D770-N771INSNPG)
- Sequence (P00533 whole entry, looked up, stated change not applied, the tested form may be a part): as the sequence (P00533 whole entry, looked up, stated change not applied) above
- Procedure Text: Inhibition of 6His-tagged TEV-GS fused EGFR D770_N771insNPG mutant (G696 to G1210 reisudes) (unknown origin) expressed in Sf21 cells using Poly(Glu,Tyr) peptide as substrate preincubated for 15 mins followed by substrate addition and measured after 30 mins in presence of ATP by ADP-Glo reagent based assay
Measurement Name: IC50

| Entry Smiles | Reading |
| --- | --- |
| C=CC(=O)Nc1cc(Nc2ncc(C(=O)OC(C)C)c(-c3cn(C)c4ccccc34)n2)c(OC)cc1N(C)CCN(C)C | < 3 nM |
| CN1Cc2cc(COc3cccc(-c4n[nH]cc4-c4ccncc4)c3)ccc2C1=O | 150 nM |
| C=CC(=O)N[C@H]1C=C(C)c2c(-c3cnc4ccccc4c3)c3c(N)ncnc3n2C1 | < 3 nM |

====

- Procedure Text: Metabolic stability in human liver microsomes assessed as intrinsic clearance at 1 uM incubated for 30 mins in presence of NADPH by LC-MS/MS analysis
- Type: ADME, Microsome
- Settings: read-out: CLH
Catalogue of microsomal CLint at 1 µM readings, one per entry.
Measurement Name: microsomal CLint at 1 µM (µL/min/mg)

| Entry Smiles | Operator | Reading |
| --- | --- | --- |
| C=CC(=O)N1CC[C@H](n2cc(-c3ccncc3)c(-c3ccc(F)c(OCc4ccc5c(c4)CN(C)C5=O)c3)n2)C1 | > | 300 |
| C=CC(=O)NCCn1cc(-c2ncnc3cc(OC)c(OC)cc23)c(-c2cccc(OC)c2)n1 | = | 116 |
| C=CC(=O)N1C[C@@H](n2cc(-c3ccncc3)c(-c3cccc(COc4ccc5c(c4)CN(C)C5=O)c3)n2)C[C@H]1C | > | 300 |
| C=CC(=O)N1CC[C@H](n2cc(-c3ccncc3)c(-c3cccc(/C=C/c4ncc(C5CC5)o4)c3)n2)C1 | = | 214 |

====

- Assay Target: Epidermal growth factor receptor (Homo sapiens, UniProt P00533)
- Sequence (P00533 whole entry): as the sequence (P00533 whole entry, looked up, stated change not applied) above
- Procedure Text: Inhibition of wildtype EGFR (unknown origin) phosphorylation transfected in human NCI-H2073 cells preincubated for 2 hrs followed by EGF stimulation for 10 mins by HTRF assay
- Type: cell-based
pIC50: −log10 of the molar value.
Catalogue of pIC50 readings, one per entry.
Measurement Name: pIC50

| Entry Smiles | Measurement Name | Operator | Reading |
| --- | --- | --- | --- |
| C=CC(=O)N1CC[C@H](n2cc(-c3ccncc3)c(-c3cc(F)cc(OCc4ccc5c(c4)CN(C)C5=O)c3)n2)C1 | pIC50 | < | 4.55 |
| C=CC(=O)N[C@H]1C=C(C)c2c(-c3cnc4ccccc4c3)c3c(N)ncnc3n2C1 | pIC50 | = | 7.11 |
| C=CC(=O)Nc1cc(Nc2ncc(C(=O)OC(C)C)c(-c3cn(C)c4ccccc34)n2)c(OC)cc1N(C)CCN(C)C | pIC50 | = | 7.43 |
| C=CC(=O)N1CC[C@H](n2cc(-c3ccncc3)c(-c3cccc(/C=C/c4ccc5c(c4)CN(C)C5=O)c3)n2)C1 | pIC50 | < | 4.80 |

Hey, just so you know, these numbers are from ChEMBL document CHEMBL5506057.
